molecular target: recombinant human HexA (Homo sapiens); experiment: Hexosaminidase A assay
Sequence (P06865 89-529): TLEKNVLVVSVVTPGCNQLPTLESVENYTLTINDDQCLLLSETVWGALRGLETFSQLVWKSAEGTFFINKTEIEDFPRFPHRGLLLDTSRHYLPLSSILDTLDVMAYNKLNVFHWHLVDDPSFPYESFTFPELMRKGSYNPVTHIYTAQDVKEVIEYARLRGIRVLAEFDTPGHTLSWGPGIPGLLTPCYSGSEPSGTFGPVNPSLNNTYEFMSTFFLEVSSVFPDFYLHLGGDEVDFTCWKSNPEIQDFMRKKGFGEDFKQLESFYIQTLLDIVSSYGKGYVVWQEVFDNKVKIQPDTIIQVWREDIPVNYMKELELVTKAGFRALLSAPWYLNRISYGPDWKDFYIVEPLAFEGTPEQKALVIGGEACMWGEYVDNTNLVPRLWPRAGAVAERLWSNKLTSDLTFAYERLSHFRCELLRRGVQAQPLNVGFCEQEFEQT
pIC50: −log10 of the molar value.
QUANTITY NAME: pIC50

> print(dat)
                                   compound                      system.under.test  number
1  CC(=O)N[C@H]1/C(=N/OC(=O)Nc2ccccc2)O[C@H](CO)[C@@H](O)[C@@H]1O [PUGNAc, reference compound]  recombinant human HexA (Homo sapiens)    6.31

---

experiment: Half-life in mice; settings: mouse, in vivo
QUANTITY NAME: half-life

> print(dat)
                               smiles.entry  result
1  CC(=O)Nc1nnc(N2CCN([C@@H](C)c3ccc4c(c3)OCO4)CC2)s1   2.8 h

---

target: HexA/B from human placenta; assay: Hexosaminidase A/B assay; conditions: read-out: IC50 HexA/B
QUANTITY NAME: IC50 (µM)

> print(dat)
                                   molecule  display.unit  number
1  CC(=O)N[C@H]1/C(=N/OC(=O)Nc2ccccc2)O[C@H](CO)[C@@H](O)[C@@H]1O [PUGNAc, reference compound]            µM   0.031
